# tested system: ITK (Mus musculus)
# Construct: mice were sacrificed and splenocytes were isolated and used to prepare protein lysates; from tissue; host or cells: mouse splenocytes (spleen) after oral dosing
# Sequence (Q03526 1-625): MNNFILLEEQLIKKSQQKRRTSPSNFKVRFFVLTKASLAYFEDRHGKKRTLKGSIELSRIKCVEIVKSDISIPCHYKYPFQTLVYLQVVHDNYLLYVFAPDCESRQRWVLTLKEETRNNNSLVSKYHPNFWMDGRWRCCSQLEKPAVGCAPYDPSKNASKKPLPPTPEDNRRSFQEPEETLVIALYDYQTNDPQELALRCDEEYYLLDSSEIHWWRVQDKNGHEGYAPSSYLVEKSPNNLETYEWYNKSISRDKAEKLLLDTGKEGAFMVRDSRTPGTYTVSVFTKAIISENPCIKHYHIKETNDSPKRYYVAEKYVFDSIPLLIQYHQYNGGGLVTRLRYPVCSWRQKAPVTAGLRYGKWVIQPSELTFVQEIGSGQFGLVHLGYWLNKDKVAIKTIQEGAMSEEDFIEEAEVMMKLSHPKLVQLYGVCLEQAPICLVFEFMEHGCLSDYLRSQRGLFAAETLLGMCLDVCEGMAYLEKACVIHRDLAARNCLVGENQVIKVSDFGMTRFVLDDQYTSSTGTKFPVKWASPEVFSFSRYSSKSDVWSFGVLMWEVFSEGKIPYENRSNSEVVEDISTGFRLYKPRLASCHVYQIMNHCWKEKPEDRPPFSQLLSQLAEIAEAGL
# test description: Mouse PD assay for ITK degradation (Western blot, splenocytes after oral administration)
# Assay type: in vivo
# experimental setup: percent ITK remaining in mouse splenocytes relative to vehicle, 90 mpk PO, 6 h
measured attribute: ITK (%) 90 mpk PO, 6 h

See these solved cases before continuing.
molecule="C[C@@]12Cc3[nH]nc(-c4cc5ccc(N6CCC7(CCN(CC8CCN(c9ccc(C%10CCC(=O)NC%10=O)cn9)CC8)CC7)C6=O)cc5[nH]4)c3C[C@@H]1C2(F)F (some centres unmarked)" result_unit=% result_number=8
molecule="CC1(C)CCc2c(-c3cc4ccc(C(=O)N5CCN(CC6CCN(c7ccc(C8CCC(=O)NC8=O)cn7)CC6)CC5)cc4[nH]3)n[nH]c2C1 (centres unmarked)" result_unit=% result_number=11

[I] Cn1c(=O)n([C@@H]2CCC(=O)NC2=O)c2cccc(N3CCC(CN4CCN(C(=O)c5ccc6cc(-c7n[nH]c8c7CCC(C)(C)C8)[nH]c6c5)CC4)CC3)c21
[II] CC1(C)CCc2c(-c3cc4ccc(N5CCC6(CCN(CC7CCN(c8ccc(C9CCC(=O)NC9=O)cn8)CC7)CC6)C5=O)cc4[nH]3)n[nH]c2C1 (centres unmarked)
Ask | Identify the entry with the larger ITK (%) 90 mpk PO, 6 h. Options: I and II Your choice should be expressed through its label.
Reply | II
(II: 76%, I: 35%)
